// data source = patent US20060094017A1

Tested on: Mab 2G12
method: BIACore (SPR) binding of Mab 2G12 to mimotopes displayed on phage captured by anti-M13 antibody
Design: species or system human
assayConditions: round three phage-displayed mimotope (pIII) captured via anti-M13 on RAMFc CM5 chip; 25 μl Mab 2G12 at 100 μg/ml
Attribute: amount of Mab 2G12 captured on the chip
Number only, in RUs; omit the unit.

Record excerpt, results attached:
VLRLMECHFQCVPSL (Synthetic peptide mimotope) [SEQ ID NO:4] ... 17
WKIPDHGIVVFSWFP (Synthetic peptide mimotope) [SEQ ID NO:3] ... 24
KCCFAESSRSGTGRY (Synthetic peptide mimotope) [SEQ ID NO:2] ... 120

Next sequence, please.
Qu. Given the sequence RSGHKVWVVSTKESS (Synthetic peptide mimotope) [SEQ ID NO:1] , write its reported amount of Mab 2G12 captured on the chip.
Ans. 312

====

Tested on: Mab 2G12
method: BIACore (SPR) binding of Mab 2G12 to biotinylated synthetic mimotope peptides on streptavidin chip
Set-up: species or system human
assayConditions: synthetic biotinylated mimotope peptide (500 μg/ml) on streptavidin chip; 100 μl Mab 2G12 at 0.25 μg/μl, 5 μl/min
reportedEndpoint: captured Mab 2G12 (RUs)
Number only, in RUs; omit the unit.

VLRLMECHFQCVPSL (Synthetic peptide mimotope) [SEQ ID NO:4] ... 133

Qu. Given the sequence WKIPDHGIVVFSWFP (Synthetic peptide mimotope) [SEQ ID NO:3] , write its reported captured Mab 2G12.
Ans. 1193

Qu. Given the sequence TLKSLPYRAVLGAQA (Synthetic peptide mimotope) [SEQ ID NO:5] , write its reported captured Mab 2G12.
Ans. 37

Qu. Given the sequence RSGHKVWVVSTKESS (Synthetic peptide mimotope) [SEQ ID NO:1] , write its reported captured Mab 2G12.
Ans. 117
